Just for reference, PubChem BioAssay (NCATS) is where these values come from.

system: AA1029; assay: qHTS profiling for inhibitors of Plasmodium falciparum proliferation (AID 504749); note: nearly all actives have a fitted effect of over 60% in size; conditions: P. falciparum in erythrocytes, SYBR Green DNA, 72 h; series mostly up to 28.7 µM
Records with an inconclusive call do not appear. Active and inactive are the calls of the source. Calls come from the whole dose curve; as a rule, active = well fitted inhibition curve with a large enough effect; inconclusive = small, poorly fitted or top-dose-only effect; inactive = flat fitted curve, though single readings scatter.
Possible outcomes: t for active, f for inactive

• CN1CCC(=C2c3ccccc3Sc3ccccc32)CC1 = t
• CC(O)C(=O)O (centres undefined) = f
• CCOc1ccc2nc3cc(N)ccc3c(N)c2c1 = t
• CCC(=O)c1c(O)cc(O)cc1O = f
• CCOc1ccc(NC(=O)CC(C)O)cc1 (centres undefined) = f
• C[C@]12CC[C@@H]3c4ccc(O)cc4CC[C@H]3[C@@H]1CC[C@@H]2O = f
• CN(C)CCOc1ccccc1Cc1ccccc1 = t
• NCCCC[C@H](N[C@@H](CCc1ccccc1)C(=O)O)C(=O)N1CCC[C@H]1C(=O)O = f
• CCCCCCC[N+](CC)(CC)CCCCc1ccc(Cl)cc1 = t
• CCCCCCc1ccc(O)cc1O = f
• Cc1ccnc(NS(=O)(=O)c2ccc(N)cc2)n1 = f
• CCCCCCCCCCCCCCCC[N+](C)(C)CC = t
• COc1cc(C(=S)N2CCOCC2)cc(OC)c1OC = f
• O=C1OC(c2ccc(O)cc2)(c2ccc(O)cc2)c2ccccc21 = f
• O=C1CCC(c2ccc(-n3ccnc3)cc2)=NN1 = f
• CC1=C(C(=O)OC(C)C)C(c2cccc([N+](=O)[O-])c2)C(C(=O)OC2CN(C(c3ccccc3)c3ccccc3)C2)=C(N)N1 (centres undefined) = t
• NCCC(O)(P(=O)(O)O)P(=O)(O)O = f
• CCn1cc(C(=O)O)c(=O)c2cnc(N3CCCC3)nc21 = f
• Cc1c(C(N)=O)cc([N+](=O)[O-])cc1[N+](=O)[O-] = f
• CC[N+](CC)(CCNC(=O)C(=O)NCC[N+](CC)(CC)Cc1ccccc1Cl)Cc1ccccc1Cl = t
• Oc1ccc(O)cc1 = f
• N[C@H](CO)C(=O)O = f
• CC(C)(C)CC(C)(C)c1ccc(O)c(Cc2ccc(Cl)cc2Cl)c1 = t
• CN1C(CCl)Nc2cc(Cl)c(S(N)(=O)=O)cc2S1(=O)=O (centres undefined) = f
• CC(Cc1cccc(C(F)(F)F)c1)NCCOC(=O)c1ccccc1 (centres undefined) = f
• Cc1c(C)n(Cc2ccccc2)c2ccc(C(=O)OCCN(C)C)cc12 = f
• CN=C(NC#N)NCCSCc1csc(N=C(N)N)n1 = f
• CCC(C(=O)OCCN(CC)CC)c1ccccc1 (centres undefined) = f
• CN(C(=O)CN(CCO)CC(=O)N(C)C(C)(C)Cc1ccccc1)C(C)(C)Cc1ccccc1 = f
• CC(=O)OCC(=O)NCCCOc1cccc(CN2CCCCC2)c1 = f
• CCCCCCCCCCCCCCCCOP(=O)([O-])OCC[N+](C)(C)C = f
• CC(C)(C)CC(C)(C)c1ccc(OCCOCC[N+](C)(C)Cc2ccccc2)cc1 = t
• O=C(CCN1CCC(c2ccccc2)C1)c1ccc2c(c1)OCCO2 (centres undefined) = f
• CCCCOc1cc(C(=O)NCCN(CC)CC)c2ccccc2n1 = f
• C[C@]12CCC(=O)C=C1CC[C@H]1[C@@H]3CC[C@](O)(C(=O)CO)[C@@]3(C)C[C@H](O)[C@@]12F = f
• Oc1ccc(Cl)cc1Sc1cc(Cl)ccc1O = f
• O=C1OCCN1/N=C/c1ccc([N+](=O)[O-])o1 = t
• NC(=NCCCCCCN=C(N)/N=C(\N)Nc1ccc(Cl)cc1)/N=C(\N)Nc1ccc(Cl)cc1 = t
• CN1C2CCC1CC(OC(=O)c1c[nH]c3ccccc13)C2 (centres undefined) = f
• O=C(Nc1ccc(Cl)c(Cl)c1)C1CC1 = f
• Cc1ccc(O)c2ncccc12 = f
• N[C@@H](Cc1cnc[nH]1)C(=O)O = f
• OCc1ccccc1O = f
• CC1(C)CCC(NC(=O)[C@@H](N)CCC(=O)O)CC1 = f
• COc1cccc(CCc2ccccc2OCC(CN(C)C)OC(=O)CCC(=O)O)c1 (centres undefined) = t
• CCCCCC=CCC=CCCCCCCCC(=O)OCC = f
• O=C1[C@H]2CCCC[C@H]2C(=O)N1CCCCN1CCN(c2nsc3ccccc23)CC1 = f
• CNCCC=C1c2ccccc2CCc2ccccc21 = t
• Cc1cc(=O)n(-c2ccccc2)n1C = f

====

assay: Cell Viability - Jurkat (AID 426); conditions: qHTS;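 note: potency is the fitted concentration of half-maximal effect; cells exposed to compound for 40 hours at 37 °C before ATP read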
Records with an inconclusive call do not appear. Activity calls are given as the source filed them.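 How the source made its calls: active means dose-dependent loss of cell ATP signal giving a full or clear fitted curve, ranked by lower potency value; inconclusive means weak partial curve or response only at the top dose; inactive means no loss of viability signal.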
Labels: label 1 = active, label 0 = inactive

• O=c1ccc2ccccc2o1 = label 0
• O=C(O)CCCCC(=O)O = label 0
• NC(=NCCCCCCN=C(N)/N=C(\N)Nc1ccc(Cl)cc1)/N=C(\N)Nc1ccc(Cl)cc1 = label 1
• Oc1ccc(Cl)cc1Sc1cc(Cl)ccc1O = label 1
• CC(C)(C)CC(C)(C)c1ccc(OCCOCC[N+](C)(C)Cc2ccccc2)cc1 = label 1
• Oc1c(Cl)cc(Cl)cc1Sc1cc(Cl)cc(Cl)c1O = label 1
• CCCCCCc1ccc(O)cc1O = label 0

====

Catalogue of activity change, negative = inhibition values
experiment: qHTS Assay for Lipid Storage Modulators (AID 1519); settings: Drosophila S3 cells, BODIPY lipid droplet/cell ratio, laser cytometry; at 57.5 µM (top of the series); cells loaded with oleic acid; note: % is set by controls: 0 for no effect and ±100 for the full control effect
Records with an inconclusive call do not appear.
Assay readout: activity change, negative = inhibition (%)

- COc1ccc(CCN2CCC(Nc3nc4ccccc4n3Cc3ccc(F)cc3)CC2)cc1: 12.8
- COc1ccc(OC)c(C(O)CNC(=O)CN)c1 (stereo unspecified): 8.05
- CCOC(=O)n1ccn(C)c1=S: 8.2
- C1CCc2nnnn2CC1: 0.8
- c1ccc(-c2ccc(C(c3ccccc3)n3ccnc3)cc2)cc1 (stereo unspecified): 13.6
- CC(Cc1cccc(C(F)(F)F)c1)NCCOC(=O)c1ccccc1 (stereo unspecified): -1.3

====

system: CP203; test: qHTS profiling for inhibitors of Plasmodium falciparum proliferation (AID 504749); note: nearly all actives have a fitted effect of over 60% in size; details: P. falciparum in erythrocytes, SYBR Green DNA, 72 h; series mostly up to 28.7 µM
Results filed as inconclusive are left out. Activity calls are given as the source filed them. Calls follow the shape of the dose curve; as a rule, active = well fitted inhibition curve with a large enough effect; inconclusive = small, poorly fitted or top-dose-only effect; inactive = flat fitted curve, though single readings scatter.
Outcomes: TRUE for active, FALSE for inactive

- CC(=O)Oc1ccc(C(=C2CCCCC2)c2ccc(OC(C)=O)cc2)cc1: FALSE
- O=C(Nc1ccc(Cl)c(Cl)c1)C1CC1: FALSE
- Cc1cc(O)c(C(C)C)cc1Cl: FALSE
- CCCn1c(=O)[nH]c(=O)c2[nH]cnc21: FALSE
- Cc1ncc(CSSCc2cnc(C)c(O)c2CO)c(CO)c1O: FALSE
- O=C1OC(c2ccc(O)cc2)(c2ccc(O)cc2)c2ccccc21: FALSE
- CCOc1ccc(Cc2nccc3cc(OCC)c(OCC)cc23)cc1OCC: FALSE
- CCOC(=O)OC(C)OC1=C(C(=O)Nc2ccccn2)N(C)S(=O)(=O)c2ccccc21 (centres undefined): FALSE
- COC(=O)[C@H]1[C@H]2C[C@H]3c4[nH]c5ccccc5c4CCN3C[C@H]2CC[C@@H]1O: FALSE
- Cc1c(F)c(N2CCNC(C)C2)cc2c1c(=O)c(C(=O)O)cn2C1CC1 (centres undefined): FALSE
- O=C1c2ccccc2C(=O)C1c1ccccc1: FALSE
- COC(=O)[C@@H]1CC2=CC(=O)CC[C@]2(C)[C@@]23O[C@@H]2C[C@@]2(C)[C@@H](CC[C@@]24CCC(=O)O4)[C@H]13: FALSE
- Oc1ccc(O)cc1: TRUE
- CCN(CC)C(=O)N1CCN(C)CC1: FALSE
- CC(C)COC(=O)OCN1C(=O)CN(CCN2CC(=O)N(COC(=O)OCC(C)C)C(=O)C2)CC1=O: FALSE
- O=C1CCC(c2ccc(-n3ccnc3)cc2)=NN1: FALSE
- CCn1cc(C(=O)O)c(=O)c2cnc(N3CCCC3)nc21: FALSE
- CC(O)(P(=O)(O)O)P(=O)(O)O: FALSE
- COc1ccc(/C=C/C(=O)c2ccc(OC)cc2OC)cc1: TRUE
- O=C(COc1ccc(Cl)cc1)N1CCN(Cc2ccc3c(c2)OCO3)CC1: FALSE
- CCN(CC)C(=O)/C(C#N)=C/c1cc(O)c(O)c([N+](=O)[O-])c1: FALSE
- CCCCCCc1ccc(O)cc1O: FALSE
- CCCCC1=NC2(CCCC2)C(=O)N1Cc1ccc(-c2ccccc2-c2nn[nH]n2)cc1: FALSE
- CNCCC=C1c2ccccc2CCc2ccccc21: TRUE
- CCCCOc1ccc(OCCCN2CCOCC2)cc1: FALSE
- CC1(C)CCC(NC(=O)[C@@H](N)CCC(=O)O)CC1: FALSE
- CC(C)(C)CC(C)(C)c1ccc(OCCOCC[N+](C)(C)Cc2ccccc2)cc1: TRUE
- CC(=O)Nc1c(I)cc(I)c(C(=O)O)c1I: FALSE
- CCCCOc1ccc(C(=O)CCN2CCCCC2)cc1: FALSE
- Cc1c(C(N)=O)cc([N+](=O)[O-])cc1[N+](=O)[O-]: FALSE
- NCCc1ccn[nH]1: FALSE
- Cc1c(C(C)C)c(=O)n(-c2ccccc2)n1C: FALSE
- O=C(O)c1cc2cc(Cc3cccnc3)ccc2o1: FALSE
- c1ccc(OCc2ccc(CCCN3CCOCC3)cc2)cc1: FALSE
- CC(C)(C(=O)c1cccnc1)c1cccnc1: FALSE
- CN1CCC[C@@H]1c1cccnc1: FALSE
- CCCCCCCCCCCCCCNCCO: FALSE
- O=C(Nc1ccc(Oc2ccc(Cl)cc2)c(Cl)c1)c1cc(I)cc(I)c1O: FALSE
- COc1cc(NS(C)(=O)=O)ccc1Nc1c2ccccc2nc2ccccc12: TRUE
- CN1C2CCC1CC(OC(=O)c1c[nH]c3ccccc13)C2 (centres undefined): FALSE
- O=C(CCN1CCC(c2ccccc2)C1)c1ccc2c(c1)OCCO2 (centres undefined): FALSE
- C#C[C@]1(OC(C)=O)CC[C@H]2[C@@H]3CCC4=C[C@@H](OC(C)=O)CC[C@@H]4[C@H]3CC[C@@]21C: FALSE
- O=C(O)CCCCC(=O)O: FALSE
- CC(=O)OCC(=O)[C@@]1(OC(C)=O)[C@@H](C)C[C@H]2[C@@H]3C[C@H](F)C4=CC(=O)C=C[C@]4(C)[C@@]3(F)[C@@H](O)C[C@@]21C: FALSE
- CC(C)(C)CC(C)(C)c1ccc(O)c(Cc2ccc(Cl)cc2Cl)c1: TRUE
- N[C@@H](Cc1cnc[nH]1)C(=O)O: FALSE
- Cc1cc(=O)n(-c2ccccc2)n1C: FALSE
- O=c1ccc2ccccc2o1: FALSE
- CC(O)C(=O)O (centres undefined): FALSE
